IC50 reference
# target_or_test_system: Bet BRD4 full length bromo-domain protein (Homo sapiens, UniProt O60885)
# assay_text: Bet bromodomain TR-FRET assay (displacement of acetyl histone peptide)
# Format: binding
# recorded_conditions: Bet BRD4 full length bromodomain protein, 300 nM acetyl histone peptide substrate, read-out: IC50

>>> df
                                   compound  measured_value
0  COc1ccccc1S(=O)(=O)Nc1cc(C(C)C2CCCN(C)C2)c2c(c1)C1(CCC1)C(=O)N2 (single isomer, unassigned) [Compound 173]       > 1000 nM

(Q) I'd like to know its IC50. The compound in question is O=C1Nc2c(NC3CCNCC3F)cc(NS(=O)(=O)c3ccc(F)cc3F)cc2C12CCC2 (stereo not drawn) [Compound 102]
(A) 600 to 1000 nM

(Q) Quick check: IC50 of CCN1CCCC(Nc2cc(NS(=O)(=O)c3ccc(F)cc3F)cc3c2NC(=O)C32CCC2)C1 (stereo not drawn) [Compound 70] ?
(A) < 600 nM

(Q) IC50 lookup needed for COc1ccccc1S(=O)(=O)Nc1cc(OC2CCN(CCO)CC2)c2c(c1)C1(CCC1)C(=O)N2 [Compound-209] , thanks.
(A) < 600 nM

(Q) If you can, please state the reported IC50 value of CN1CCC(Nc2cc(NS(=O)(=O)c3ccc(F)cc3F)cc3c2NC(=O)C32CCC2)CC1 [Compound 17] .
(A) < 600 nM

(Q) Item O=C(NC1CCCNC1)c1cc(NS(=O)(=O)c2ccc(F)cc2F)cc2c1NC(=O)C21CCC1 (single isomer, unassigned) [Compound 67] has what recorded IC50?
(A) 600 to 1000 nM
